# Test target: hIKK-2 (Homo sapiens, UniProt O14920)
# Construct: gene IKBKB
# Sequence (O14920 whole entry): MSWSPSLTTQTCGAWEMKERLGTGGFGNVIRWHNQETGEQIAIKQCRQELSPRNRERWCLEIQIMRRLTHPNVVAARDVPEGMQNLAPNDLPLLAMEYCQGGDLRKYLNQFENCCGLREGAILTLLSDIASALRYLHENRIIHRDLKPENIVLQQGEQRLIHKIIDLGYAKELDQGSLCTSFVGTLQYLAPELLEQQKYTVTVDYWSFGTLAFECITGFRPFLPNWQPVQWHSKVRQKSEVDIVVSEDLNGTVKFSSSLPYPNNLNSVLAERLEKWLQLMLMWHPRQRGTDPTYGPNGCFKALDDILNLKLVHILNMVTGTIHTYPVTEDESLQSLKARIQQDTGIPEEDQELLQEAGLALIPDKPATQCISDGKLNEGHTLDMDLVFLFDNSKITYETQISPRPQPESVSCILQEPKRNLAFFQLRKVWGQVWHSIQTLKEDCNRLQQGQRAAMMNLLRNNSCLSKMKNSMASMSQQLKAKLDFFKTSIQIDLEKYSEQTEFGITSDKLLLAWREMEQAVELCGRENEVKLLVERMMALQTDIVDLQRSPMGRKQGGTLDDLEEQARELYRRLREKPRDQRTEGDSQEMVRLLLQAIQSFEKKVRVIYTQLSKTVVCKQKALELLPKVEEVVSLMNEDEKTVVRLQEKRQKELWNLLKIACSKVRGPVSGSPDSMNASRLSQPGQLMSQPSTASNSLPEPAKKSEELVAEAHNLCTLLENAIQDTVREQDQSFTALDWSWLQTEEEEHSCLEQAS
# Test: K-LISA IKKβ ELISA kinase assay with GST-IκBα substrate
# Format: biochemical
# Study conditions: read-out: IC50
Readout: IC50 (mM)
Return type: number; implicit unit mM.

CCOc1ccc2nc3cc(N)ccc3c(N)c2c1 [ZINC03871389, ethacridine] | 0.184

Field: next molecule
[in] So what's the measured IC50 for this one? OC[C@@H]1CCCN2CCCC[C@H]12 [ZINC01669260, lupinine]
[out] 3.32

====

# Test target: hIKK-2 (Homo sapiens, UniProt O14920)
# Construct: gene IKBKB
# Test: K-LISA IKKβ ELISA kinase assay with GST-IκBα substrate
# Assay type: biochemical
Readout: pIC50
The quantity pIC50 is defined as the negative base-10 logarithm of the molar concentration.

[in] So what's the measured pIC50 for this one? COCc1c(CN)cnc(C)c1N
[out] 2.68
